Assign inhibition to each entry below.
experiment: human hepatoma cell viability loss – ATP luminescence, cytotoxicity control for P. falciparum antimalarial project, primary screen (AID 2303); settings: HepG2 viability, 24-48 h, at 10 µM, active compounds read high;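 also: 0% = DMSO wells and 100% = digitonin-killed cells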
Answers are plain numbers, in %.

CC(C)c1ccc(N2CCN(CCCCNC(=O)c3ccc(NC(=O)c4cc(Cl)cc(Cl)c4)cc3)CC2)cc1
12
CC[C@H]1CN2CCc3c([nH]c4ccccc34)[C@@H]2C[C@@H]1CC1c2cc(OC)c(OC)cc2CCN1C (stereo partly specified)
31
CCOC(=O)NC1=NC(C)(C)N(OCCCOc2cc(Cl)c(Cl)cc2Cl)C(N)=N1
63
CCCCCCNc1cc(C)nc(/N=C(\N)Nc2cccc(C(F)(F)F)c2)n1
44
O=[N+]([O-])c1ccc2ncnc(Nc3ccc(F)c(Cl)c3)c2c1
-1
CN(C)CCN(C)Cc1ccc(-c2ccc(NS(=O)(=O)c3cccc4cccnc34)cc2)cc1
23
Cc1c(Cl)cccc1S(=O)(=O)Nc1cccc(CCN2CCC(N3CCCCC3)CC2)c1
38
COc1c(C2CCN(CCCCNC(=O)c3ccc(NC(=O)c4ccc(C#N)cc4)cc3)CC2)ccc2c1CCCC2
81
CC(C)N1CCC(N(Cc2ccc(-c3ccc(C(F)(F)F)cc3)cc2)C(=O)Cn2c(CCc3cccc(F)c3F)cc(=O)c3c2CCC3)CC1
30
O=C(Nc1ccc2c(c1)CCN2C1CCN(Cc2ccc(F)cc2Cl)C1)c1ccco1 (stereo unspecified)
4

For each listed entry, give its inhibition.
1. CN1CCN(CC(=O)Nc2ccc(-c3cccc(-c4nc5ccc(C(F)(F)F)cc5[nH]4)c3)cc2)CC1
2. NC(N)=Nc1nc(-c2cccc(NC(=O)C(F)(F)F)c2)cs1
3. CCc1cn2c3c(cc(C(=O)N[C@@H](Cc4cccc(Cl)c4)[C@H](O)CNC4CCCCC4)cc13)N(C)S(=O)(=O)CC2
4. COc1ccccc1C1CCN(CCCCNC(=O)c2ccc(NC(=O)c3ccc(Cl)cc3)cc2)CC1
5. COc1cncc(/C=C/c2cncc(C(=O)NCCc3ccc(Cl)cc3Cl)c2)c1
6. CCCN(CCC)CCCN(CCCN(CCC)CCC)c1cc(C)nc(Nc2ccc3cc(Br)ccc3c2)n1

[45, -4, 12, 21, -3, 99]

For each listed entry, give its inhibition.
1. COc1ccc(-c2cccc(NC(=O)c3cccc(Cl)c3)c2)cc1CN1CCCN(C)CC1
2. COc1ccc(CCNc2nc(NCCc3cnc[nH]3)nc(NCc3cccc4ccccc34)n2)cc1OC
3. O=C(Nc1ccc(OC2CCN(Cc3ccsc3)CC2)c(Cl)c1)c1ccc(F)cc1
4. CCCCCn1c(Sc2ccc(C#N)c([N+](=O)[O-])c2)nnc1-c1cccs1
5. CC(Cc1ccc(OCCN2CCN(c3cccc(C(F)(F)F)c3)CC2)cc1)NCC(O)c1cccc(C(F)(F)F)c1 (stereo unspecified)
6. COc1cccc(Nc2nc(Nc3cccc(C#N)c3)cc(C(F)(F)F)n2)c1
7. CC(C)Cc1cn(-c2nc(-c3nc4ccccc4[nH]3)cs2)c2ccncc12

[20, 2, 31, 19, 11, 15, 34]

* * *

assay: antimalarial activity against Dd2 strain (AID 2302);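 also: 0% = DMSO untreated growth and 100% = chloroquine plus artemisinin killed control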; conditions: P. falciparum Dd2 in RBCs, LDH growth readout, 72 h; at 2 µM
Calls of active or inactive are those of the source.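 How the source made its calls: active means growth inhibition above 50% at the single 2 µM test dose, taken to imply half-maximal potency below 2 µM; inactive means the rest.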
Use one of these outcomes when replying: YES for active, NO for inactive

Look over these answered cases.
CCOc1cc(C(=O)Nc2ccc3nc(N4CCCCC4)cc(C)c3c2)cc(OCC)c1OCC
NO
COc1ccc(NC(=O)[C@H](Cc2ccccc2)Nc2cc(C)nc(NCc3ccccc3C)n2)cc1
YES
OC(CNCCc1ccccc1)Cn1c2ccc(Cl)cc2c2cc(Cl)ccc21 (centres undefined)
YES
O=C(NCCCCN1CCC(c2ccc3c(c2OCCO)CCCC3)CC1)c1ccc(-c2ccc(C(F)(F)F)cc2)cc1
NO
Cc1ccccc1C(=O)Nc1cccc(-c2nc3ncccn3c2C)c1
YES
COc1ccc(-n2ccnc2SCC(=O)Nc2cc(C(F)(F)F)ccc2Cl)c(OC)c1
YES
COc1cc2nc(NCCn3cccn3)nc(NCCc3ccccc3)c2cc1OC
YES
O=C(Nc1ccc(OC2CCN(Cc3ccc(F)cc3)C2)c(Cl)c1)c1ccccc1 (centres undefined)
YES
Cc1onc(-c2ccccc2)c1C(=O)Nc1nc(-c2ccccn2)nc2ccsc12
YES
CCCCCCC1(C)N=C(N)N=C(N)C1c1ccc(Cl)c(Cl)c1 (centres undefined)
NO

I would be grateful if you could indicate the recorded call for O=C(Nc1ccc(-c2nc3ccccc3[nH]2)cc1)c1ccc(S(=O)(=O)N2CCCCC2)cc1 .
NO

// same read-out, input: CN(C)CCNC(=O)c1ccc2c(c1)n(C1CCN(S(=O)(=O)c3ccc(-c4ccccc4)cc3)CC1)c(=O)n2CC1CCCCC1
YES

// same read-out, input: COc1ccc(CNC2CCN(C)CC2)cc1-c1ccc(S(=O)(=O)NC2CCC2)c(F)c1
YES

// same read-out, input: CCn1c(=O)c(C(=O)Nc2cc(Cl)c(OC)cc2OC)nc2ccccc21
YES

// same read-out, input: Nc1c(I)cc(C(=O)Nc2ccc3nc4c(c(N)c3c2)CCCC4)cc1I
YES

// same read-out, input: Cc1[nH]cnc1CSCCNC(=NCCCCCCCCN=C(NC#N)NCCSCc1nc[nH]c1C)NC#N
NO
